pIC50: −log10 of the molar value.
Record set: pIC50 | IRAK4 (Homo sapiens (Human), UniProt Q9NWZ3) | literature, multiple sources.

{"SMILES STRUCTURE": "Cc1nnc(-c2cnc(-c3cccc(-c4cnn(C)c4)c3)nc2N[C@H]2CC[C@@H](NS(C)(=O)=O)CC2)s1", "SYSTEM UNDER TEST": "IRAK4 (Homo sapiens (Human), UniProt Q9NWZ3)", "pIC50": "> 7.00"}
{"SMILES STRUCTURE": "CC[C@H](C[C@H]1CCc2sc3ncnc(N[C@H]4CC[C@H](N(C)C)CC4)c3c21)OC", "SYSTEM UNDER TEST": "IRAK4 (Homo sapiens (Human), UniProt Q9NWZ3)", "pIC50": "> 5.30"}
{"SMILES STRUCTURE": "CC(C)c1nc2c(N[C@H]3CC[C@H](N(C)C)CC3)ncnc2s1", "SYSTEM UNDER TEST": "IRAK4 (Homo sapiens (Human), UniProt Q9NWZ3)", "pIC50": "5.30 to 6.00"}

====

Record set: IC50 | IRAK4 (Homo sapiens (Human), UniProt Q9NWZ3) | literature, multiple sources.

{"MOLECULE": "CCOc1cc(-c2cccc([C@@H](N)[C@H](CC)OC)n2)cc2c1cnn2-c1cccc(CO)n1", "UNITS": "nM", "INEQUALITY SIGN": "<", "IC50": 100}
{"MOLECULE": "CCN[C@H]1CC[C@H](Oc2ncnc3sc4c(c23)[C@@H](C[C@@H](O)C(N)=O)CC4)CC1", "UNITS": "nM", "INEQUALITY SIGN": "<", "IC50": 5000}
{"MOLECULE": "C[C@H](C#N)Nc1cc(-c2ccc3cc(C#N)cnn23)ncc1-c1cn(C[C@@H](F)C(C)(C)O)nn1", "UNITS": "nM", "INEQUALITY SIGN": "<", "IC50": 1}
{"MOLECULE": "Cc1n[nH]c(C)c1-c1ccc2ncnc(N[C@H]3CC[C@H](N4CCOCC4)CC3)c2c1", "UNITS": "nM", "INEQUALITY SIGN": "=", "IC50": 104}
{"MOLECULE": "COc1cc2nn([C@H]3CC[C@@H](N4CCC5(CCN(C(=O)c6ccc(Cl)c(N7CCC(=O)NC7=O)c6)CC5)CC4)CC3)cc2cc1NC(=O)c1cccc(C(F)(F)F)n1", "UNITS": "nM", "INEQUALITY SIGN": "=", "IC50": 11}
{"MOLECULE": "CC(C)Nc1cc(Nc2ccc3ncsc3c2)ncc1C(=O)NCC[C@@H](C)NC(=O)CCCC(C)(C)O", "UNITS": "nM", "INEQUALITY SIGN": "=", "IC50": 3.3}
{"MOLECULE": "O=C(Nc1nc(CCCN2CCCCC2)cn1-c1ccccc1)c1cccc(-c2cn[nH]c2)c1", "UNITS": "nM", "INEQUALITY SIGN": "<", "IC50": 50}
{"MOLECULE": "CC(=O)N1CCC(NC(=O)c2cnc3sc(-c4ccc(=O)[nH]c4)cc3c2NC(C)C)CC1", "UNITS": "nM", "INEQUALITY SIGN": "=", "IC50": 37.1}
{"MOLECULE": "COc1cc2nn([C@H]3CC[C@H](CCN4CCC5(CC4)CCN(C(=O)c4ccc(Cl)c(N6CCC(=O)NC6=O)c4)CC5)CC3)cc2cc1NC(=O)c1cccc(C(F)(F)F)n1", "UNITS": "nM", "INEQUALITY SIGN": "=", "IC50": 7.5}
{"MOLECULE": "CC(C)(O)[C@H](F)CNC(=O)c1cnc(Nc2ccc3nccnc3c2)cc1NC1CCCOC1 (some centres unmarked)", "UNITS": "nM", "INEQUALITY SIGN": "=", "IC50": 13.8}
{"MOLECULE": "O=C(O)CCc1cn2cc(NC(=O)c3cccc(C(F)(F)F)n3)c(N3CCC(CO)CC3)cc2n1", "UNITS": "nM", "INEQUALITY SIGN": "=", "IC50": 7.1}
{"MOLECULE": "COc1nc2c(OC[C@H]3NC(=O)C[C@H]3C(F)F)csc2cc1C(N)=O", "UNITS": "nM", "INEQUALITY SIGN": "=", "IC50": 2.5}
{"MOLECULE": "COC(=O)N1CCC(N2CC(n3cc(NC(=O)c4cccc(-c5cnn(C(C)(C)CN)c5)n4)c(C(F)F)n3)C2)CC1", "UNITS": "nM", "INEQUALITY SIGN": "=", "IC50": 0.67}
{"MOLECULE": "CN(C)c1cccc(Nc2ncc(-c3nc4cnccc4s3)c(N[C@@H]3C[C@H](CO)[C@@H](O)[C@H]3O)n2)c1", "UNITS": "nM", "INEQUALITY SIGN": "=", "IC50": 12}
{"MOLECULE": "CC(C)Nc1c(C(=O)NCCC2CC2)cnc2ccc(-c3cn[nH]c3)cc12", "UNITS": "nM", "INEQUALITY SIGN": "=", "IC50": 4.5}
{"MOLECULE": "CNC(=O)Cc1cn(-c2ccccc2)c(NC(=O)c2cccnc2)n1", "UNITS": "nM", "INEQUALITY SIGN": ">", "IC50": 100}
{"MOLECULE": "C[C@H](N)c1cccc(-c2cc(-c3cnccn3)c3cnn(-c4cccc(CO)n4)c3c2)n1", "UNITS": "nM", "INEQUALITY SIGN": "<", "IC50": 100}

====

Record set: pIC50 | IRAK4 (Homo sapiens (Human), UniProt Q9NWZ3) | literature, multiple sources.
pIC50: −log10 of the molar value.
PROPERTY: pIC50

{"SMILES STRUCTURE": "CCc1nc2c(N[C@H]3CC[C@H](N(C)CC(=O)N4CCCC4)CC3)nc(Nc3cnn(C)c3)nc2s1", "PROPERTY": "pIC50", "RESULT": "≥ 6.00"}
{"SMILES STRUCTURE": "O=C(Nc1nc(CCCCCO)cn1-c1ccccc1)c1cccc(-c2cn[nH]c2)c1", "PROPERTY": "pIC50", "RESULT": "> 7.30"}
{"SMILES STRUCTURE": "Cc1noc(-c2cnc(Nc3ccc4c(c3)C(C)(C)OC4=O)nc2NCc2ccccc2C(C)(C)O)n1", "PROPERTY": "pIC50", "RESULT": "6.00 to 6.60"}
{"SMILES STRUCTURE": "CC(C)Nc1nc(Nc2cnn(C3CCCCC3)c2)nc2ccn(-c3cnn(C)c3)c12", "PROPERTY": "pIC50", "RESULT": "6.00 to 7.00"}

====

Record set: IC50 | UniProtKB Q9NWZ3 | literature, multiple sources.

{"COMPOUND": "CC(N)c1cccc(-c2cc(F)c3cnn(-c4cccc(CO)n4)c3c2)n1 (stereo not drawn)", "IC50": "< 100 nM"}
{"COMPOUND": "Cn1cc(-c2cccc(C(=O)Nc3nc(CCCCC(=O)NCCN4CCOCC4)cn3-c3ccccc3)c2)cn1", "IC50": "< 50 nM"}
{"COMPOUND": "N#Cc1ccc2nccc(N[C@H]3CC[C@H](N4CCC5(CC4)CC5)CC3)c2c1", "IC50": "≤ 5000 nM"}

====

Record set: IC50 | IRAK4 (Homo sapiens (Human)) | literature, multiple sources.

{"COMPOUND": "CC(C)Oc1c(C(=O)Nc2cccn([C@H]3C[C@@H]3C)c2=O)cn2cc(C34COC(C)(C3)C4)nc2c1F", "IC50": "0.9 nM"}
{"COMPOUND": "C[C@@H](O)C[C@H]1CCc2sc3ncnc(O[C@H]4CC[C@H](N5CCOCC5)CC4)c3c21", "IC50": "< 5000 nM"}
{"COMPOUND": "CN1CCCC1c1cccc(-c2ccc3cnn(-c4cccc(C(F)(F)F)n4)c3c2)n1 (stereo not shown)", "IC50": "1000 to 10000 nM"}
{"COMPOUND": "Cc1nnc(-c2cnc(-c3cccc(-c4cnn(C)c4)c3)nc2NC(C)C)s1", "IC50": "< 100 nM"}
{"COMPOUND": "CC(=O)N1CCC(Oc2nc(Nc3cc(C)ns3)nc3ccn(-c4cnn(C)c4)c23)CC1", "IC50": "100 to 1000 nM"}
{"COMPOUND": "Cn1cc(-c2cccc(-c3ncc(-c4ccn(C)n4)c(NCC4CNCCO4)n3)c2)cn1 (stereo not shown)", "IC50": "100 to 1000 nM"}
{"COMPOUND": "C[C@H](N)c1cccc(-c2cc(-c3nccs3)c3cnn(-c4cccc(CO)n4)c3c2)n1", "IC50": "< 100 nM"}
{"COMPOUND": "Cn1cc(-c2cccc(-c3ncc(-c4cnn(C)c4)c(NC[C@H]4CCCC[C@H]4O)n3)c2)cn1", "IC50": "< 100 nM"}
{"COMPOUND": "CN1CCC(CNc2nc(-c3cccc(-c4cnn(C)c4)c3)ncc2-c2cnn([C@H]3CC[C@]4(CCC(=O)N4C)CC3)c2)CC1", "IC50": "< 100 nM"}
{"COMPOUND": "Cc1cc(Nc2nc(NC3CCOCC3)c3c(ccn3-c3ccncc3)n2)sn1", "IC50": "100 to 1000 nM"}
